method_description: Ratio of Dihydrofolate reductase inhibitory activity in rat to Mycobacterium avium
outcome_measure: Selectivity ratio

[[record]]
smiles_notation = "Nc1nc(N)c2nc(CN(c3ccccc3)c3ccccc3)cnc2n1"
outcome_measure = "Selectivity ratio"
result = 1.1

[[record]]
smiles_notation = "Nc1nc(N)c2nc(CN3c4ccccc4Cc4ccccc43)cnc2n1"
outcome_measure = "Selectivity ratio"
result = 1.6

[[record]]
smiles_notation = "Nc1nc(N)c2nc(CN3c4ccccc4C=Cc4ccccc43)cnc2n1"
outcome_measure = "Selectivity ratio"
result = 367

[[record]]
smiles_notation = "Nc1nc(N)c2nc(CN3c4ccccc4Sc4ccccc43)cnc2n1"
outcome_measure = "Selectivity ratio"
result = 6.9


###

target_entity: Dihydrofolate reductase (Pneumocystis carinii)
Sequence (P16184 whole entry): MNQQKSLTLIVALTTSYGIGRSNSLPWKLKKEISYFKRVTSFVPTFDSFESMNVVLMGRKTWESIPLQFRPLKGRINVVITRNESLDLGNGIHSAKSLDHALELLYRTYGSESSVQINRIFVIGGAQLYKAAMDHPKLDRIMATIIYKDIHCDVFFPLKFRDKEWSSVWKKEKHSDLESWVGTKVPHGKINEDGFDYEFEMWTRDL
pIC50: −log10 of the molar value.
Listing of entries alongside the reported pIC50.
outcome_measure: pIC50

[[record]]
smiles_notation = "Nc1nc(N)c2nc(CN3c4ccccc4Oc4ccccc43)cnc2n1"
outcome_measure = "pIC50"
numeric_result = 5.47

[[record]]
smiles_notation = "Nc1nc(N)c2nc(CN3c4ccccc4Sc4ccccc43)cnc2n1"
outcome_measure = "pIC50"
numeric_result = 6.92

[[record]]
smiles_notation = "Nc1nc(N)c2nc(Cn3c4ccccc4c4ccccc43)cnc2n1"
outcome_measure = "pIC50"
numeric_result = 7.00

[[record]]
smiles_notation = "Nc1nc(N)c2nc(CN3c4ccccc4Cc4ccccc43)cnc2n1"
outcome_measure = "pIC50"
numeric_result = 7.38


###

method_description: Ratio of Dihydrofolate reductase inhibitory activity in rat to Toxoplasma gondii
Listing of entries alongside the reported Selectivity ratio.
outcome_measure: Selectivity ratio

[[record]]
smiles_notation = "Nc1nc(N)c2nc(CN3c4ccccc4Sc4ccccc43)cnc2n1"
outcome_measure = "Selectivity ratio"
numeric_result = 1.8

[[record]]
smiles_notation = "Nc1nc(N)c2nc(CN(c3ccccc3)c3ccccc3)cnc2n1"
outcome_measure = "Selectivity ratio"
numeric_result = 3.1

[[record]]
smiles_notation = "Nc1nc(N)c2nc(CN3c4ccccc4Cc4ccccc43)cnc2n1"
outcome_measure = "Selectivity ratio"
numeric_result = 0.93

[[record]]
smiles_notation = "Nc1nc(N)c2nc(CN3c4ccccc4C=Cc4ccccc43)cnc2n1"
outcome_measure = "Selectivity ratio"
numeric_result = 102

[[record]]
smiles_notation = "Nc1nc(N)c2nc(Cn3c4ccccc4c4ccccc43)cnc2n1"
outcome_measure = "Selectivity ratio"
numeric_result = 4.6

[[record]]
smiles_notation = "Nc1nc(N)c2nc(CN3c4ccccc4CCc4ccccc43)cnc2n1"
outcome_measure = "Selectivity ratio"
numeric_result = 5.6

